Tested on: K4 kissing-loop RNA reporter
Experiment: apparent KD of K4 kissing-loop reporter; higher = weaker reporter binding
Conditions: Eterna round: R107; input ligand: theophylline 20 uM
Reported apparent KD of K4 kissing-loop reporter by item:

| monomer_sequence | apparent KD of K4 kissing-loop reporter / nM |
| --- | --- |
| AGUCCACUCUAAAGAGUGGACCUAAGGGAUACCAGUGAUGUUGGUCACCCUUGGCAGCCCUCUGUCAUCGAUAAAGAUGGCAGAA | 112 |
| CCACCUCCAGAAGGAUAUAGUGUAUCAGAUUCACUCGAGUGCCUUAAACUAAGGAGUGAUGUUCCGCUAGAAGGUCUCGUAGGCA [theeternabot_exclusion_KL_FMN_B_45] | 138 |
| GCAUGAUAGUAAGGAUAUAGAUAAUCCUUAUAUAUAUCGAGUGAUGUUCGAUGUGCCAAGGUACAUCUAGAAGGUACUGUAAGGU [Same State FMN B GF 17] | 355 |
| AGACUACUGACAGGAUAUAACAUACUAGCUCGUAUACCAAAGGUAUACGAGCACCUUCUAGUGAUGUUAGAAGGGUCGGUAGUCA [Omei KL FMN B Exc B v2] | 310 |
| AUGUAUGAAUUAGGAUAUCGUGAGCUUUGCAUAUAUAUGAUAAAUGGAUAUGUCGUAGUGAUGUUACGAGAAGGAGUGUGGAGUA [KL-XFMN-B3] | 65.8 |
| AGCGUCUGAAGAGGAUAUGACCAGUGAUGUUGGUUACUACCUCAAAUUAGUGUCGCGCCAAAAUCGUCAGAAGGCUUCGGCGCGC [Ussoes] | 96.7 |
| GUACCAGUGAUGUUGGUAGGCGAGCGGGAUACCAGCCAAGACUCAGGCCCUUGGCAGCCCACAUAUCCCACGUAGGUAGUAGCUC [Same State - Theophylline A (Freestyle 17)] | 110 |
| GUACGCUCUCGAGUGAUGUUCGGUAAUCGCUAGGAUAUCGCUUUUGCGAGAAGGAGCGGAAUGAGGAAACUCGUUCUGAGUGUAC [FMN A 22] | 325 |
| GCAGUGAUGUUGCGCGGGUACGGUAGAGUACGAGGACCGGUACGGCCGCCACUCGUACGGAACUGGCUAAUUUAUGGAAUGGUGA [IV] | 350 |
| CUGACGCUGAUACGGUGGCCGAUGGUCGUGCGAGGACCGGUACGGCCGCCACUCGCAUGAGUGAUGUUCAUGUGUCGUCGUCGUC [#06 K4 Tryptophan A Exclusion] | 106 |
| AGACCACAAAGUGGUCAGUGUUCGCUCCGGCGAGGACCGGUACGGCCGCCACUCGCGAGUGAUGUUCGCGAGUGGAGCGAACACA [Omei KL Tryp A Exc A v1] | 76 |
| AGUGCACUGUCAGGAUAUAUACAGUGAUGUUGUGUAUGUCAGCAAGUCAAAGACUUGCUAUUCUGUGUAGAAGGGACUGUGUACA [Omei KL FMN B Exc A v1] | 207 |
| CGAGUCCUGAGGAGUGAUGUUCCUCGGCCACGAGGACCGGUACGGCCGCCACUCGUUACUCGGGCUUAGCAGCAAGCACUAAGCU [Acesote] | 302 |
| UGGAGUUGACGAAAAGUCAACUCCCGAGAAGGAGCGGACGAAAGUCCAGGUAGGUCGCUCGCUACCAGUGAUGUUGGUACUCAAA | 192 |
| GCAGGACGAGGAGGAGGAUGAAUUACUGAAGGAGCGCAUAUUGUUGCAGGUAGGUCGCGGUAAACAAGUAUAGUGAUGUUAUAUC [SSArgA.O] | 695 |
| AGACUACCACACUGUCAAUAGACAGUGAACUAGGAUAUGCUGAUAAGCAGAAGGAGUGAUGUUCCGAGGUAGUCAAUAAAAUAAU [FmnAX 13 G66] | 334 |
| AAGCGUGUGGCGGCCGCCACUAGUCUCCAGUGAUGUUGGAGAUAUCACGUAAGUGAUAUCCGACAUAGGACCGGGCCAUAUGGAA [Same State - Tryptophan B (Freestyle 22)] | 612 |
| AAGCAGUCACUCGACGCCAUCGAAGAUGGGCGAGGACCGGUACGGCCGCCACUCGGAGUGAUGUUCUGAAGACUGCAAAAUAAAA [MatMod 7 - Jieux - Exclusion - Tryptophan A] | 115 |

====

Test system: K4 kissing-loop RNA reporter;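 note: bound reporter read as fluorescence of individual clusters on recovered sequencing chips by microscopy, with normalized cluster intensities fitted with a binding model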
Assay: apparent KD of K4 kissing-loop reporter; higher = weaker reporter binding
Conditions: Eterna round: R107; input ligand: none
Label Y when apparent KD of K4 kissing-loop reporter >= 100 nM; otherwise N.

| monomer_sequence | label |
| --- | --- |
| CGAGUCCUGAGGAGUGAUGUUCCUCGGCCACGAGGACCGGUACGGCCGCCACUCGUUACUCGGGCUUAGUAGCUAGCACUAAGCU [Quedmaon] | Y |
| UCGCAAAAGUCGGCCGCCACUCCGGGCCCUAUAAAUGGGCGCAGUGAUGUUGCGGCUAGGCCUCUGAGGACCGGGACUUUGUAGC [Tixelequ] | N |
| AAAUAAUAAAUGCAGCCAGUGAUGUUGGAAGGAGCGUGCGAAAGCACAGGUAGGUCGCCAACCAAAGCUGGAAACAGCAACUGCA [#SwitchBubble 3 #K4Early] | N |
| AUGUCGUUAUAGUGAGUGAUGUUCACUGUGCGAGGACCGGUACGGCCGCCACUCGAGAGUGGUGGACACUGAGUCACUCUGACAC [Tryp A Ex t2] | Y |
| AGGCACGAGCAAGGAUAUUGAGUAGAGUGAUGUUCUGCCUAAGUUGGCUCGAAAGAGCCUUCUUAGCGAGAAGGUGCUCGUGCCU [#2 Same State - FMN A Attempt #26 (HarryS)] | Y |

====

Tested on: MS2 coat protein
Assay: apparent KD of MS2 coat protein; designed switch direction (-1 OFF switch, 1 ON switch): -1; higher = weaker reporter binding
Conditions: input ligand: none

| monomer_sequence | system_tested | apparent KD of MS2 coat protein (nM) |
| --- | --- | --- |
| AAGAACGUGCAAGGAUAUCUCCACCAAACCGGCAGAGAAGGUGCACAUGAGGAUCACCCAUGUGACCUAAGGCUCUUAUGAGCC [Teismace] (Eterna round: R96, puzzle: Exclusion NG 1) | MS2 coat protein | 18.5 |
| ACACUGCGAGGAUAUACAUGAGGAUCACCCAUGUGUCGGCAGCCACGGUAGCACUAGUGUAGAAGGCGCAUUAG [EX3 #42] (Eterna round: R97, puzzle: Exclusion 3) | MS2 coat protein | 28.3 |
| GAAAAGAAGCUAGGAUAUGCAUGACGGAUACCCGUGAGCACGUAGCAGACAUGAGGAUCACCCAUGUAGAAGGAGCGAAGAAAU [Veteriat] (Eterna round: R96, puzzle: Exclusion NG 2) | MS2 coat protein | 52.8 |
| UUCGUGCAGCUUUGCUGUACGCGUACAUGAGGAUCACCCAUGUAGGAUAUGGUAGGCUUUGCUUACUAGAAGGAUAGUGUGAUC [JL EXNG3 1.30] (Eterna round: R96, puzzle: Exclusion NG 3) | MS2 coat protein | 88.7 |
| CCGGAACAUGAGGAUCACCCAUGUCAGGAUAUGAAUAAAUCGUCGAUAGACGAUAAUCUCAGAAGGGACACCGG [Mat - Exclusion 1 - Eli Mod - D27] (Eterna round: R97, puzzle: Exclusion 1) | MS2 coat protein | 24.2 |
| UGCGGUAGAGGAUAUACGUAGAAUUAGGUUCAUGUAAAACUACAUGAGGAUCACCCAUGUAGAAGGCUAUCGCU [JL-ex2-4.30 Eli mod] (Eterna round: R97, puzzle: Exclusion 2) | MS2 coat protein | 21.2 |
| CGAGGUAGAGGAUAUACGUGGAAAUAGAUUCAUGUUAAUCUACAUGAGGAUCACCCAUGUAGAAGGCUAUAGCG [JR_Ex2_Sub075] (Eterna round: R97, puzzle: Exclusion 2) | MS2 coat protein | 24.9 |
| ACCAUUUUACGAUAUGUGCACAUGAGGAUCACCCAUGUUCCGAUAAACAUUUGAAGUACAGCAGGCUGCUCGAUCUG [Eternabot (L2) Solution 45] (Eterna round: R97, puzzle: Sensor, turn-off variant 1) | MS2 coat protein | 87.4 |
| CACCGUUACUGAGGAUAUCCUACAUGAGGAUCACCCAUGUAAUAAAUGAGAAUUUCGGAUGUAUUGGAGAAGGCAGAAAUCGGC [Ostricism 62 - Jieux - Exclusion NG 2] (Eterna round: R96, puzzle: Exclusion NG 2) | MS2 coat protein | 58.4 |
| ACACCACAUGAGGAUCACCCAUGUAAGGAUAUAACGCAUCCGCGUAACUGCGGGCAAGUUAGAAGGUGUAUGGG [Eternabot (L2) Solution 91] (Eterna round: R97, puzzle: Exclusion 1) | MS2 coat protein | 49.6 |
| GCGGUACAUGAGGAUCACCCAUGUUAGGAUAUUCUACGUCUCUAAUCUGAAACGCAAGGAAGAAGGAGCGUGGG [Eternabot (Original) Solution 21] (Eterna round: R97, puzzle: Exclusion 1) | MS2 coat protein | 28.2 |
| UCAUGUCCAGAGGAUAUGUAGAUCGAGAGAUCAACAGAAGGCUGGACAUGAGGAUCACCCAUGUGCGCCUUCAA [jl-ex3-4.29 ViennaUCT mod] (Eterna round: R97, puzzle: Exclusion 6) | MS2 coat protein | 188 |
